- System: NCI-H460
- method: relative viability (nuclei count vs DMSO), 5 days (fraction); higher = more cells survive
- experimentalContext: first compound 8 µM
testReadout: relative viability
Could you keep your reply to the number by itself?

Example results:
compound	value
Nc1cccc2c1CN(C1CCC(=O)NC1=O)C2=O (stereo not drawn) [Lenalidomide] + Cc1cc(Nc2cc(N3CCN(C)CC3)nc(Sc3ccc(NC(=O)C4CC4)cc3)n2)n[nH]1 [Tozasertib] (partner 0.1 µM)	0.587
Nc1cccc2c1CN(C1CCC(=O)NC1=O)C2=O (stereo not drawn) [Lenalidomide] + CC1(C)CCC(c2ccc(Cl)cc2)=C(CN2CCN(c3ccc(C(=O)NS(=O)(=O)c4ccc(N[C@H](CCN5CCOCC5)CSc5ccccc5)c(S(=O)(=O)C(F)(F)F)c4)cc3)CC2)C1 [Navitoclax] (partner 0.5 µM)	1.13

# return recorded relative viability for input Nc1cccc2c1CN(C1CCC(=O)NC1=O)C2=O (stereo not drawn) [Lenalidomide] + Nc1ncn([C@H]2C[C@H](O)[C@@H](CO)O2)c(=O)n1 [Decitabine] (partner 2 µM)
0.649

###

- System: IA-LM
- method: relative viability (nuclei count vs DMSO), 5 days (fraction); higher = more cells survive
- experimentalContext: first compound 2 µM
In this section, each of the molecules is paired with its reported relative viability.
Could you keep your reply to the number by itself?

molecule	relative viability
Cc1csc(=NC2CCCCC2)n1/N=C/c1ccc(O)c(O)c1O [MIM1] + CS(=O)(=O)CCNCc1ccc(-c2ccc3ncnc(Nc4ccc(OCc5cccc(F)c5)c(Cl)c4)c3c2)o1 [Lapatinib] (partner 2 µM)	0.716

Report value only: relative viability, IA-LM, CN1CCN(CCOc2cc(OC3CCOCC3)c3c(Nc4c(Cl)ccc5c4OCO5)ncnc3c2)CC1 [Saracatinib] + O=C(c1cc(Cc2n[nH]c(=O)c3ccccc23)ccc1F)N1CCN(C(=O)C2CC2)CC1 [Olaparib] (partner 8 µM)
0.76

###

- System: HCC-44
- method: relative viability (nuclei count vs DMSO), 5 days (fraction); higher = more cells survive
- experimentalContext: first compound 0.6325 µM
testReadout: relative viability
Could you keep your reply to the number by itself?

Example results:
compound	relative viability
Cc1csc(=NC2CCCCC2)n1/N=C/c1ccc(O)c(O)c1O [MIM1] + Cc1nc(NC(=O)N2CCC[C@H]2C(N)=O)sc1-c1ccnc(C(C)(C)C(F)(F)F)c1 [Alpelisib] (partner 2 µM)	0.838
Cc1csc(=NC2CCCCC2)n1/N=C/c1ccc(O)c(O)c1O [MIM1] + CS(=O)(=O)CCNCc1ccc(-c2ccc3ncnc(Nc4ccc(OCc5cccc(F)c5)c(Cl)c4)c3c2)o1 [Lapatinib] (partner 2 µM)	0.969
CN1CCN(CCOc2cc(OC3CCOCC3)c3c(Nc4c(Cl)ccc5c4OCO5)ncnc3c2)CC1 [Saracatinib] + C[C@@H](Oc1cc(-c2cnn(C3CCNCC3)c2)cnc1N)c1c(Cl)ccc(F)c1Cl [Crizotinib] (partner 1 µM)	0.952
Cc1csc(=NC2CCCCC2)n1/N=C/c1ccc(O)c(O)c1O [MIM1] + N=C(N)NC(=N)NCCc1ccccc1 [Phenformin] (partner 250 µM)	0.138

# return recorded relative viability for input CN1CCN(CCOc2cc(OC3CCOCC3)c3c(Nc4c(Cl)ccc5c4OCO5)ncnc3c2)CC1 [Saracatinib] + C[C@]1(O)C[C@@H](c2nc(-c3ccc4ccc(-c5ccccc5)nc4c3)c3c(N)nccn32)C1 [Linsitinib] (partner 1 µM)
0.823

The measurements presented in this section are drawn from the supplement of paper PMC10307832.
